Tested on: anaesthesized rats
Assay: wheal test, intradermal injection
Type: in vivo, rat
Set-up: unit not given here
Details: Table XIV and text, unit not given
Starred links: 1 amine or outer side, 2 acyl side, 3 side chain; linkers in the order of their positions; H or OH if unused. Non-standard residues stand in square brackets, D forms with d. Residues, ends and D or L forms follow the SMILES beside them. *: point of attachment. dAla(cis-4-NHCOPyz-cHex) = N[C@H](C[C@H]1CC[C@@H](NC(=O)c2cnccn2)CC1)C(=O)O; X2 = O=C(N[C@H]1CC[C@@H](C[C@H](N[*:1])C(=O)[*:2])CC1)c1cnccn1; dPhe(4-Cl) = N[C@H](Cc1ccc(Cl)cc1)C(=O)O; d2Nal = N[C@H](Cc1ccc2ccccc2c1)C(=O)O; Lys(iPr) = CC(C)NCCCC[C@H](N)C(=O)O; Orn(iPr) = CC(C)NCCC[C@H](N)C(=O)O; aIle = CC[C@@H](C)[C@H](N)C(=O)O; d3Pal = N[C@H](Cc1cccnc1)C(=O)O; Nicotinoyl = O=C(c1cccnc1)*; Picolinoyl = O=C(c1ccccn1)*; Abu = CC[C@H](N)C(=O)O
Assay endpoint: Wheal (wheal response)
Keep it simple and answer with nothing but the number.

Reference set, count: 5
Compound	Numeric result
CC[C@@H](C)[C@H](NC(=O)[C@@H](CCCCNC(=O)c1ccccn1)NC(=O)[C@H](CCCCNC(=O)c1ccccn1)NC(=O)[C@H](CO)NC(=O)[C@@H](Cc1cccnc1)NC(=O)[C@@H](Cc1ccc(Cl)cc1)NC(=O)[C@@H](Cc1ccc2ccccc2c1)NC(C)=O)C(=O)N[C@@H](CCCCNC(C)C)C(=O)N1CCC[C@H]1C(=O)N[C@H](C)C(N)=O [IBR 25936] (Ac-[d2Nal][dPhe(4-Cl)][d3Pal]SK(Picolinoyl)[dK](Picolinoyl)[aIle][Lys(iPr)]P[dA]-NH2)	97.9
CC(=O)N[C@H](Cc1ccc2ccccc2c1)C(=O)N[C@H](Cc1ccc(Cl)cc1)C(=O)N[C@H](Cc1cccnc1)C(=O)N[C@@H](CO)C(=O)N[C@@H](CCCCNC(=O)c1ccccn1)C(=O)N[C@H](CCCCNC(=O)c1ccccn1)C(=O)N[C@@H](CC(C)C)C(=O)N[C@@H](CCCNC(C)C)C(=O)N1CCC[C@H]1C(=O)N[C@H](C)C(N)=O [compound 25933] (Ac-[d2Nal][dPhe(4-Cl)][d3Pal]SK(Picolinoyl)[dK](Picolinoyl)L[Orn(iPr)]P[dA]-NH2)	113.0
CC(=O)N[C@H](Cc1ccc2ccccc2c1)C(=O)N[C@H](Cc1ccc(Cl)cc1)C(=O)N[C@H](Cc1cccnc1)C(=O)N[C@@H](CO)C(=O)N[C@@H](CCCCNC(=O)c1ccccn1)C(=O)N[C@H](C[C@H]1CC[C@@H](NC(=O)c2cnccn2)CC1)C(=O)N[C@@H](CC(C)C)C(=O)N[C@@H](CCCNC(C)C)C(=O)N1CCC[C@H]1C(=O)N[C@H](C)C(N)=O [compound 26181] (Ac-[d2Nal][dPhe(4-Cl)][d3Pal]SK(Picolinoyl)[dAla(cis-4-NHCOPyz-cHex)]L[Orn(iPr)]P[dA]-NH2)	101.6
CC[C@H](NC(=O)[C@@H](CCCCNC(=O)c1ccccn1)NC(=O)[C@H](CCCCNC(=O)c1ccccn1)NC(=O)[C@H](CO)NC(=O)[C@@H](Cc1cccnc1)NC(=O)[C@@H](Cc1ccc(Cl)cc1)NC(=O)[C@@H](Cc1ccc2ccccc2c1)NC(C)=O)C(=O)N[C@@H](CCCNC(=N)N)C(=O)N1CCC[C@H]1C(=O)N[C@H](C)C(N)=O [compound 26346] (Ac-[d2Nal][dPhe(4-Cl)][d3Pal]SK(Picolinoyl)[dK](Picolinoyl)[Abu]RP[dA]-NH2)	113.2
CC(=O)N[C@H](Cc1ccc2ccccc2c1)C(=O)N[C@H](Cc1ccc(Cl)cc1)C(=O)N[C@H](Cc1cccnc1)C(=O)N[C@@H](CO)C(=O)N[C@@H](CCCCNC(=O)c1cccnc1)C(=O)N[C@H](CCCCNC(=O)c1cccnc1)C(=O)N[C@@H](CC(C)C)C(=O)N[C@@H](CCCCNC(C)C)C(=O)N1CCC[C@H]1C(=O)N[C@H](C)C(N)=O [Antide] (Ac-[d2Nal][dPhe(4-Cl)][d3Pal]SK(Nicotinoyl)[dK](Nicotinoyl)L[Lys(iPr)]P[dA]-NH2)	132.7

Attention now turns to another entry.
Tell me reported Wheal (wheal response) for CC(=O)N[C@H](Cc1ccc2ccccc2c1)C(=O)N[C@H](Cc1ccc(Cl)cc1)C(=O)N[C@H](Cc1cccnc1)C(=O)N[C@@H](CO)C(=O)N[C@@H](C[C@H]1CC[C@@H](NC(=O)c2cnccn2)CC1)C(=O)N[C@H](CCCCNC(=O)c1ccccn1)C(=O)N[C@@H](CC(C)C)C(=O)N[C@@H](CCCCNC(C)C)C(=O)N1CCC[C@H]1C(=O)N[C@H](C)C(N)=O [compound 26180] (Ac-[d2Nal][dPhe(4-Cl)][d3Pal]S[X2][dK](Picolinoyl)L[Lys(iPr)]P[dA]-NH2) , tested with anaesthesized rats.
99.5
